Where do the numbers come from? From PubChem BioAssay.

- Protocol Summary: small-molecule binders of probe aInhba, primary screen, biochemical, small-molecule microarray, 635/667 nm fluorescence (AID 1148);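 note: score merges 667nm spot fluorescence with signal-to-noise for antibody binding to printed compounds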
- Experimental Conditions: higher = more signal
Endpoint Label: composite z-score
Answer as a number with no unit attached.

See these solved cases before continuing.
Compound	composite z-score
CCCCCN1CC=CC23O[C@@H]4C=CCCOC(=O)C4[C@H]2C(=O)N(CCCCCO)[C@@H]3C1=O (some centres undefined)	-0.157
C=C(C)[C@@H]1CC=C(C(O)C2C=CC3C(=O)N(c4ccccc4)C(=O)C3N2Nc2ccccc2)CC1 (some centres undefined)	0.906
C=CCNC(=O)[C@@H]1[C@H]2C(=O)O[C@H](c3ccccc3)[C@H](c3ccccc3)N2[C@H](c2ccc(O)cc2)[C@@]12C(=O)Nc1ccc(C#CCNC(N)=O)cc12	-0.339
COc1ccc(C(=O)Nc2ccc(CN3C(=O)[C@]4(O[C@H](CCO)[C@@H]([Si](C)(C)c5ccc(OC)cc5)[C@@H]4C)c4ccccc43)cc2)cc1	0.0014
CC#CC(=O)Oc1ccccc1C=CC(=O)OCC	-0.206

The reported value for `COc1ccc(-c2cc3c(c(-c4ccc(Oc5ccccc5)cc4)n2)[Si](C(C)C)(C(C)C)OC3)cn1` in terms of composite z-score is 0.038

The reported value for `C=CCNC(=O)[C@@H]1[C@H]2C(=O)O[C@H](c3ccccc3)[C@H](c3ccccc3)N2[C@H](c2ccccc2OCCO)[C@@]12C(=O)N(C(=O)OCCOC)c1ccccc12` in terms of composite z-score is -0.0259

The reported value for `O=C1c2ccccc2[C@](Cc2ccccc2I)(C(=O)NCCN2CCOCC2)[C@H](c2ccc(CO)cc2)N1Cc1ccccc1Cl` in terms of composite z-score is 0.62

The reported value for `CCOC(=O)C[C@H]1[C@H](OC(=O)c2ccc(C(=O)c3ccccc3)cc2)[C@@H](NC(=O)c2ccc3ccccc3c2)c2cc(OCCCO)ccc2N1C(=O)Cc1ccc(OC)cc1` in terms of composite z-score is -0.102

###

- System: wheat germ agglutinin (Triticum aestivum), Alexa647-labelled
- Protocol Summary: wheat germ agglutinin binders on compound microarrays, profiling panel, artefact control for SMM control-protein annotation, biochemical, small-molecule microarray, 635/667 nm fluorescence (AID 1140);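 note: score merges 667 nm feature emission with signal to noise over triplicate slides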
- Experimental Conditions: WGA-A647 binding, 635 nm fluorescence, higher = more signal
composite z-score by entry:
Answer as a number with no unit attached.

Compound	Measured
CCCC[C@@H]1C[C@H]1[C@@H](NC(=O)c1ccco1)c1ccc(-c2ccccc2)cc1	0.124
COc1ccc([Si](C)(C)[C@H]2[C@H](CCO)O[C@@]3(C(=O)N(Cc4ccc(N(C=O)c5ccccc5)cc4)c4ccccc43)[C@@H]2C)cc1	0.655
CCCC[C@H]1OB(O)C[C@H]2C1=C(COC)C[C@H]1C(=O)N(C)C(=O)[C@H]12	0.631
COCCOC(=O)N1C(=O)[C@@]2(c3cc(C#CCCO)ccc31)[C@H](C(=O)N1CCCCCCC1)[C@H]1C(=O)O[C@H](c3ccccc3)[C@H](c3ccccc3)N1[C@@H]2c1ccc(OCCO)cc1	1.35
C=C(CCCC)/C(=C/C[C@H](OC(=O)c1ccncc1)c1ccccc1OCCO)c1cnc2ccccc2c1	1.14
CC(C)NC(=O)[C@@]1(C)c2ccccc2C(=O)N(Cc2cc(C(F)(F)F)cc(C(F)(F)F)c2)[C@H]1c1ccc(CO)cc1	-0.568

The reported value for `C=CCN1C(=O)[C@@]2(Cc3ccccc31)N=C(c1ccc(OCCCO)cc1)O[C@H]2c1ccccc1` in terms of composite z-score is 0.495

###

z-score by entry:
- Protocol Summary: PSAC antagonists in infected red cells, primary screen, cell-based, P. falciparum Indochina, OD700, 18 h (AID 1157)
- Experimental Conditions: P. falciparum Indochina infected erythrocytes, osmotic lysis OD700, 18 h; higher = more signal, called active from +8 up or from −8 down
Activity calls are given as the source filed them.

Compound	Measured
CCCC#C[Si](O[C@H](CC)c1cn(Cc2cccc(Cl)c2)nn1)(C(C)C)C(C)C	0.283 (inactive)
COC(=O)[C@@]1(Cc2ccc(F)cc2)[C@H]2c3cc(C(=O)N(C)C)n(Cc4cc(F)c(F)c(F)c4)c3C[C@H]2CN1C(=O)c1ccccc1	1.16 (inactive)
COC(=O)[C@@]1(Cc2ccc(F)cc2)[C@H]2c3cc(C(=O)N(C)C)n(Cc4ccccc4)c3C[C@H]2CN1C(=O)c1ccccc1	1.23 (inactive)
C=C(COC)/C(=C/C[C@@H](OC(=O)c1ccncc1)c1ccc(CO)o1)c1cc(C(=O)OC)ccc1OC	0.308 (inactive)
COCCOC(=O)N1C(=O)[C@@]2(c3cc(C#Cc4ccc(OC)cc4)ccc31)[C@H](c1ccc(O)cc1)N1[C@H](c3ccccc3)[C@H](c3ccccc3)OC(=O)[C@H]1[C@@H]2C(=O)N1CCc2cc(OC)c(OC)cc2C1	0.827 (inactive)

The reported value for `NC(=O)NCC#Cc1ccc2c(c1)[C@]1(C(=O)N2)[C@H](c2ccccc2OCCO)N2[C@H](c3ccccc3)[C@H](c3ccccc3)OC(=O)[C@H]2[C@@H]1C(=O)Nc1nc2ccccc2s1` in terms of z-score is 1.28 (inactive)

The reported value for `Cc1ccc(S[C@]2(C(=O)O)CC(=O)N(C(C)C)[C@@H]2c2ccc(CO)cc2I)cc1` in terms of z-score is -0.263 (inactive)

The reported value for `CC(C)N1C(=O)[C@@]2(Cc3ccccc31)c1ccccc1C(=O)N(Cc1ccccc1Cl)[C@H]2c1ccc(CO)cc1` in terms of z-score is -1.78 (inactive)

The reported value for `CCCC[C@@H]1C[C@H]1[C@@H](NC(=O)c1cccs1)c1ccc(-c2ccccc2)cc1` in terms of z-score is 0.668 (inactive)

The reported value for CN1C(=O)C2C=CC(C(O)c3ccccc3)N(N(c3ccccc3)c3ccccc3)C2C1=O (configuration not stated) in terms of z-score is 0.9 (inactive)

The reported value for `COC(=O)[C@@]1(Cc2ccc(OC)cc2)[C@H]2c3cc(C(=O)N(C)C)n(CCc4ccccn4)c3C[C@H]2CN1C(=O)c1ccccc1` in terms of z-score is 1.58 (inactive)

The reported value for `CC(C)NC(=O)[C@@]1(c2ccc([N+](=O)[O-])cc2)CC(=O)N(C2CCCCC2)[C@@H]1c1ccc(CO)cc1I` in terms of z-score is 0.966 (inactive)

The reported value for `C#C[C@H](O[Si](C#Cc1ccc(Oc2ccccc2)cc1)(C(C)C)C(C)C)c1ccccc1` in terms of z-score is -0.206 (inactive)

The reported value for O=C1C2C=CC(C(O)c3cc(C(F)(F)F)cc(C(F)(F)F)c3)N(n3cnnc3)C2C(=O)N1Cc1ccccc1 (configuration not stated) in terms of z-score is 0.833 (inactive)

###

- Protocol Summary: small-molecule binders of probe aInhba, primary screen, biochemical, small-molecule microarray, 635/667 nm fluorescence (AID 1148);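 note: score merges 667nm spot fluorescence with signal-to-noise for antibody binding to printed compounds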
- Experimental Conditions: higher = more signal
composite z-score by entry:
Answer as a number with no unit attached.

See these solved cases before continuing.
Compound	Measured
NCCCCCNC(=O)[C@@H]1C[C@@H]2C(=O)N[C@@H](Cc3ccccc3)C(=O)N2[C@@H]1c1ccc(O)cc1	0.174
Cc1ccc(S[C@]2(C(=O)NCCCN(C)C)CC(=O)N(Cc3cc(C(F)(F)F)cc(C(F)(F)F)c3)[C@@H]2c2ccc(CO)cc2I)cc1	0.172
CN(C)CCCCCCNC(=O)[C@H]1C[C@H]2C(=O)N3CCC[C@H]3C(=O)N2[C@H]1c1ccc(O)cc1	0.019
COC(=O)C(CC#Cc1ccc2c(c1)[C@]1(C(=O)N2)[C@H](c2ccc(OCCO)cc2)N2[C@H](c3ccccc3)[C@H](c3ccccc3)OC(=O)[C@H]2[C@@H]1C(=O)N1CCc2cc(OC)c(OC)cc2C1)C(=O)OC	0.542
C=CCN1C(=O)[C@@]2(CC=C)N=C(c3ccc(OCCCO)cc3)O[C@H]2c2ccccc21	0.33

The reported value for CC1CC/C=C\[C@H]2OC34C=CCN(C(C)(C)C)C(=O)[C@H]3N(CCO)C(=O)[C@@H]4C2C(=O)O1 (some centres undefined) in terms of composite z-score is -0.171

The reported value for `COC(=O)C(CC#Cc1ccc2c(c1)[C@]1(C(=O)N2)[C@H](C(=O)Nc2nc3ccccc3s2)[C@H]2C(=O)O[C@H](c3ccccc3)[C@H](c3ccccc3)N2[C@@H]1c1ccccc1OCCO)C(=O)OC` in terms of composite z-score is 0.12

The reported value for `C=C(/C(=C/C[C@H](OC(C)=O)c1ccccc1OCCO)c1cnc2ccccc2c1)C(C)C` in terms of composite z-score is 0.0543

The reported value for `COC(=O)[C@@]1(CCC(=O)OC(C)(C)C)N=C(c2ccc(OCCCO)cc2)O[C@H]1c1ccccc1N=[N+]=[N-]` in terms of composite z-score is -0.101
